Each recorded value in this set is attributed to ChEMBL document CHEMBL1961873.

Molecular target: Cyclin-dependent kinase 1 (Homo sapiens);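 note: enzyme assay on the CDK1/cyclin B complex, reported as mean percent inhibition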
Settings: at 0.1 µM
measured_endpoint: inhibition (%)
One number for each entry, in %.

compound: COc1cc2ncn(-c3cc(OCc4cccs4)c(C(N)=O)s3)c2cc1OC
value_measured: -2.79
--
compound: O=C1Nc2ccc(I)cc2C1=Cc1cc(Br)c(O)c(Br)c1
value_measured: 2.76
--
compound: Nc1nccc(-c2c(-c3ccc(F)cc3)ncn2C2CCC(O)CC2)n1 (stereo unspecified)
value_measured: 0.17

Hi team, please reply with inhibition for each item in this list.
1. NS(=O)(=O)c1ccc(N/N=C2\C(=O)Nc3ccc(-c4cnco4)cc32)cc1
2. Cc1ccc(C(=O)NC(C)C)cc1-c1ccc(C(=O)NCC2CC2)cc1
3. COc1cc(C)c(N(C)C(=O)CN(C)C)cc1Nc1nc(Nc2cccc(F)c2C(N)=O)c2cc[nH]c2n1

32.6
0.57
-4.66
